ASSAY NOTES: chemical genetic growth profiling, strain panel (AID 1159580);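 also: tested at 20 µM; growth read once vehicle control cultures reached saturation at 30 °C; 1 = growth at the plate median or of vehicle wells; lower values mean less growth of the strain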
PARTICULARS: S. cerevisiae deletion strains, growth OD, locus YDR069C, strain doa4, hits give low values
About 2,000 (36%) of roughly 5,500 compounds were called active. Inconclusive results (about 18%) are left out. Some of the results follow.
Lab note - cut at 1 for normalized growth: true (1) if strictly below, false (0) if not.

In [3]: df
Out[3]:
                                   compound  assigned_class
0     CN(C)c1ccc2nc3ccc(=[N+](C)C)cc-3sc2c1       false (0)
1  CCN(Cc1ccncc1)C(=O)C(CO)c1ccccc1 (stereo unspecified)       false (0)

[ask] Decide: normalized growth of "CCCCCC(=O)Cc1cc(O)cc(O)c1C(=O)Oc1cc(CC(=O)CCCCC)c(C(=O)O)c(OC)c1" strictly below 1?
[reply] true (1)
